Experiment: Bioavailability
Details: in vivo; read-out: bioavailability (F)
experimental_endpoint: bioavailability

For the compound OC[C@H]1O[C@@H](n2cnc3c(NCc4ccc(O)cc4)ncnc32)[C@H](O)[C@@H]1O [T1-11, N^6-(4-hydroxybenzyl)adenosine, reference compound] , what bioavailability is on record?
~5%
